Experiment: Solubility in pharmaceutical solvents (Table 3)
Format: physicochemical
Details: Ethylbenzoate, organic solvent or mixture; read-out: solubility
READOUT: solubility (mg/mL)
Enter your answer as a number in mg/mL; do not include the unit.

# compound CCOP(=O)(O[C@H]1CC[C@@]2(C)C(=CC[C@H]3[C@@H]4CC[C@H]([C@H](C)CCCC(C)C)[C@@]4(C)CC[C@@H]32)C1)OC(Cn1cncn1)(Cn1cncn1)c1ccc(F)cc1F (stereo partly shown) ; its solubility = 133

* * *

Each record here notes measured weight percentage that remained in solution.
Assay: Chemical stability in pharmaceutical solvents (weight % remaining in solution, LCMS)
Assay type: physicochemical
Conditions: H2O/Kleptose HPB (60/40), 1 day
# output: bare number, implied unit % w/w

Previously resolved entries follow.
Recorded weight percentage that remained in solution (compound `CCCCCCCCCOP(=O)([O-])OC(Cn1cncn1)(Cn1cncn1)c1ccc(F)cc1F.[Na+]` ): 99.3

In plain terms, `CCCCCCCCCOCCOP(=O)([O-])OC(Cn1cncn1)(Cn1cncn1)c1ccc(F)cc1F.[Na+]` has a documented weight percentage that remained in solution of 94.9

Noted for `C[N+](C)(C)CCOP(=O)([O-])OC(Cn1cncn1)(Cn1cncn1)c1ccc(F)cc1F` : its weight percentage that remained in solution reads 98.8

get_value(item= CCCCCCCCCC(=O)OCC(COP(=O)([O-])OC(Cn1cncn1)(Cn1cncn1)c1ccc(F)cc1F)OC(=O)CCCCCCCCC.[Na+] (centres unmarked) , readout=weight percentage that remained in solution) returns 95.3

Next:
Value of weight percentage that remained in solution reported for the compound `CCCCCCCCCC(=O)OCCOP(=O)([O-])OC(Cn1cncn1)(Cn1cncn1)c1ccc(F)cc1F.[Na+]` is 98.0

* * *

Test: Chemical stability in pharmaceutical solvents (weight % remaining in solution, LCMS)
Assay type: physicochemical
Details: H2O (pH = 2), 1 day
READOUT: weight percentage that remained in solution (% w/w)
Provide only the numeric value, understood in % w/w.

Solved entries (count: 3):
GET /value?item= C[N+](C)(C)CCOP(=O)([O-])OC(Cn1cncn1)(Cn1cncn1)c1ccc(F)cc1F [Example 1] &field=weight percentage that remained in solution returns 100.0

The recorded weight percentage that remained in solution for entry CCCCCCCCCOCCOP(=O)([O-])OC(Cn1cncn1)(Cn1cncn1)c1ccc(F)cc1F.[Na+] [Example 3] equals 94.6

Memo: CCCCCCCCCOP(=O)([O-])OC(Cn1cncn1)(Cn1cncn1)c1ccc(F)cc1F.[Na+] [Example 14] , reported weight percentage that remained in solution: 99.1

Now consider the entry below.
Form: molecule = CCCCCCCCCC(=O)OCCOP(=O)([O-])OC(Cn1cncn1)(Cn1cncn1)c1ccc(F)cc1F.[Na+] [Example 2] ; weight percentage that remained in solution = 97.7

* * *

Test: Chemical stability in pharmaceutical solvents (weight % remaining in solution, LCMS)
Format: physicochemical
Conditions: H2O (pH = 2), 14 days
Reported weight percentage that remained in solution values follow for various molecules
All answers are understood in % w/w, so give the number only.

Example results:
// sample `CCCCCCCCCC(=O)OCCOP(=O)([O-])OC(Cn1cncn1)(Cn1cncn1)c1ccc(F)cc1F.[Na+]` , its weight percentage that remained in solution was 100.0

Briefly, weight percentage that remained in solution measured for `C[N+](C)(C)CCOP(=O)([O-])OC(Cn1cncn1)(Cn1cncn1)c1ccc(F)cc1F` : 99.2

// sample `CCCCCCCCCOCCOP(=O)([O-])OC(Cn1cncn1)(Cn1cncn1)c1ccc(F)cc1F.[Na+]` , its weight percentage that remained in solution was 95.0

Let's switch to this molecule now.
The measured weight percentage that remained in solution associated with `CCCCCCCCCOP(=O)([O-])OC(Cn1cncn1)(Cn1cncn1)c1ccc(F)cc1F.[Na+]` reads 99.6

Where do these numbers come from? They come from patent US20120010173A1.
